Attribute: percent inhibition of viability
# Tested on: normal primary NK cells, pool 1 (3 donors), resting (IL-2 0 ng/mL);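 also: normalised to DMSO-only wells as negative and benzethonium chloride as positive control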
# EXPERIMENT: percent inhibition of viability; higher = more inhibition
# RECORDED_CONDITIONS: 72 h; 10 nM
EXPERIMENTAL_ENDPOINT: percent inhibition of viability (%)

In [3]: df
Out[3]:
                                   molecule  recorded_value
0  CNC(=O)c1nn(C)c2c1C(C)(C)Cc1cnc(Nc3ccc(N4CCN(C)CC4)cc3)nc1-2 [Milciclib] (max concentration tested 10000 nM)            2.94
1  O[C@H]1CC[C@H](Nc2ncc3nc(Nc4c(F)cc(F)cc4F)n([C@H]4CCOC4)c3n2)CC1 [Tanzisertib] (max concentration tested 10000 nM)            -5.9
2  O=NN(CCCl)C(=O)NC1CCCCC1 [Lomustine] (max concentration tested 10000 nM)           -11.4
3  CS(=O)(=O)N1CCc2c(-c3cnc(N)nc3)nc(N3CCOCC3)nc21 (max concentration tested 10000 nM)           -37.9
